- Tested on: HIV-1 5i3res strain
- Assay summary: Anti-HIV activity against selected 5i3res strain in MT-4 cells
- Assay type: cell-based
- Settings: Human immunodeficiency virus 1, MT4, read-out: EC50 5i3res strain
molecules and their reported pEC50
# log scale: pEC50 equals minus log10 of the concentration in mol/L

O=c1[nH]cnc2c1ncn2[C@H]1CC[C@@H](CO)O1 [ddI, didanosine] :: 5.05
Cc1cc(/C=C/C#N)cc(C)c1Nc1ccnc(Nc2ccc(C#N)cc2)n1 [RPV, rilpivirine] :: 7.13

Let's switch to this molecule now.
What value of pEC50 has been reported for the following molecule? Cc1cn([C@H]2C[C@H](N=[N+]=[N-])[C@@H](CO)O2)c(=O)[nH]c1=O [AZT, zidovudine]
7.31
